In this section we review reported EC50 (read off the curve) values for a set of binders.
TARGET ENTITY: recombinant human ICAM1 (human, UniProt P05362 28-480, limits assumed)
Sequence (P05362 28-480 limits assumed): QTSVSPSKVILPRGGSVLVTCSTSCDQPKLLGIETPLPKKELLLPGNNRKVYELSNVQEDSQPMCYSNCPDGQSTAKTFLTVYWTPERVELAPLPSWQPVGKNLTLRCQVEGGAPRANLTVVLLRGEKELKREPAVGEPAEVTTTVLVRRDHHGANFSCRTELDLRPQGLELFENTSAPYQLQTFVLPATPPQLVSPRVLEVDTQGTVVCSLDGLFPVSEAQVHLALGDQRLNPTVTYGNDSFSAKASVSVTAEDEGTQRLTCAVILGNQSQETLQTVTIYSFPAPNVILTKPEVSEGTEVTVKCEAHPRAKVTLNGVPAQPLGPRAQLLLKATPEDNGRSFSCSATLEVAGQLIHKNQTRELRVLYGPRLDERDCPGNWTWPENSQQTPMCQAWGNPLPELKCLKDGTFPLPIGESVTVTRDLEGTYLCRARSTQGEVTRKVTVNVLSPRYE
RUN DESCRIPTION: ELISA: plate coated with 1 ug/ml recombinant human ICAM1 ECD, serially diluted antibody, OD450

[[record]]
binder = "6G8 (antibody, human IgG1, kappa, V domains shown, Rabbit-human chimeric anti-ICAM1: rabbit VH and VL on human IgG1 and kappa constant regions) VH: QSVEESGGGLVKPGGTLTLTCTVSGFSLSSYAMGWVRQAPGKGLEYIGIIGSSGSTYYATWAKGRFTISKTSTTVDLKITSPTTEDTATYFCVRDPYDSYDAAYRLWGPGTLVTVSS VL: AYDMSQTPASVEVAVGGTVTIKCQASQSIYSYLSWYQQKPGQRPKLLIYDASKLASGVPSRFTGSGSGTEFTLTISGVQSDDAATYYCQQAYSSSNVDNVFGGGTEVVVKR"
quantity_name = "EC50 (read off the curve)"
observed_result = "~0.04 nM"


Now look at this one.
I am curious: what EC50 (read off the curve) value has been reported for 8H1 (antibody, human IgG1, kappa, V domains shown, Rabbit-human chimeric anti-ICAM1: rabbit VH and VL on human IgG1 and kappa constant regions) VH: QSVEESGGRLVTPGTPLTLTCTASGFSLSNYYMSWVRQAPGKGLEWIGIISDSGSTYYASWAKGRFTISKTSTTVDLKITSPTTEDTATYFCARDWSYDSSSGYYYYDMDLWGPGTLVTVSA VL: GYDMTQTPASVEVAVGGTVTIKCQASQSINSWLAWFQHKPGQPPKRLIYKASTLASGVSSRFKGSGSGTQFTLTISGVESADAATYYCQQGYSRSDGEHVFGGGTEVVVKR ? ~0.04 nM
